# system-name: CAMKK1 kinase domain (CAMKK1-KD, Gln124-Lys411) (Homo sapiens)
# Construct: The kinase domain (Gln124 to Lys411) was amplified using the primers; 6xHis (TEV-cleavable) (N, cleaved yes); made in house; host or cells: Escherichia coli BL21(DE3)-R3 co-expressing λ-phosphatase
# Sequence (Q8N5S9 124-411): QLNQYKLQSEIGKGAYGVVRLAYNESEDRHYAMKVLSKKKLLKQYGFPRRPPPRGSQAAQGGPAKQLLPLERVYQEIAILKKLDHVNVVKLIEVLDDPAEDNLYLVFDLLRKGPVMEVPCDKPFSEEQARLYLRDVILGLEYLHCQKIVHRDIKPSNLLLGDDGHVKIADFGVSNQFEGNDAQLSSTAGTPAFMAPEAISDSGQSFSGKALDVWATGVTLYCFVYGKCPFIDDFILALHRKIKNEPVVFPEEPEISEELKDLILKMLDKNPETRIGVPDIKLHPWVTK
# method: Differential scanning fluorimetry (DSF) screen of a kinase inhibitor library against CAMKK1-KD
# Type: binding
# run-conditions: DSF, CAMKK1-KD, compound 10 µM; repeated in Table 3; read-out: ΔTm (°C)
For each record, write down the corresponding ΔTm at 10 µM.
Please respond with the number in °C and leave the unit unwritten.

Challenge: Write down the reported ΔTm at 10 µM (system: CAMKK1 kinase domain (CAMKK1-KD, Gln124-Lys411) (Homo sapiens)) of CC1(COc2ccc3c(c2)ncn3-c2ccc3cccc(N4CCC(N)CC4)c3n2)COC1
Response given: 13.6

Challenge: Write down the reported ΔTm at 10 µM (system: CAMKK1 kinase domain (CAMKK1-KD, Gln124-Lys411) (Homo sapiens)) of O=C(O)c1ccc(-c2c[nH]c3ncc(-c4ccccc4)cc23)cc1C1CCCC1
Response given: 16.1

Challenge: Write down the reported ΔTm at 10 µM (system: CAMKK1 kinase domain (CAMKK1-KD, Gln124-Lys411) (Homo sapiens)) of CCS(=O)(=O)Nc1ccc2c(c1)/C(=C(/Nc1ccc(CN3CCCCC3)cc1)c1ccccc1)C(=O)N2
Response given: 7

Challenge: Write down the reported ΔTm at 10 µM (system: CAMKK1 kinase domain (CAMKK1-KD, Gln124-Lys411) (Homo sapiens)) of COc1cc(N2CCC(N3CCN(C)CC3)CC2)ccc1Nc1ncc(Cl)c(Nc2ccccc2P(C)(C)=O)n1
Response given: 8.2

Challenge: Write down the reported ΔTm at 10 µM (system: CAMKK1 kinase domain (CAMKK1-KD, Gln124-Lys411) (Homo sapiens)) of COCCOc1ccc2c(c1)ncn2-c1ccc2cccc(N3CCC(N)CC3)c2n1
Response given: 14.4
